- Assay system: T1, biotinylated recombinant human IL-12Rβ2 (human, UniProt Q99665 24-622, random biotinylated)
- T1 construct: Recombinant protein produced in-house; also called hIL-12RB2; human IL-12RB2
- T1 sequence: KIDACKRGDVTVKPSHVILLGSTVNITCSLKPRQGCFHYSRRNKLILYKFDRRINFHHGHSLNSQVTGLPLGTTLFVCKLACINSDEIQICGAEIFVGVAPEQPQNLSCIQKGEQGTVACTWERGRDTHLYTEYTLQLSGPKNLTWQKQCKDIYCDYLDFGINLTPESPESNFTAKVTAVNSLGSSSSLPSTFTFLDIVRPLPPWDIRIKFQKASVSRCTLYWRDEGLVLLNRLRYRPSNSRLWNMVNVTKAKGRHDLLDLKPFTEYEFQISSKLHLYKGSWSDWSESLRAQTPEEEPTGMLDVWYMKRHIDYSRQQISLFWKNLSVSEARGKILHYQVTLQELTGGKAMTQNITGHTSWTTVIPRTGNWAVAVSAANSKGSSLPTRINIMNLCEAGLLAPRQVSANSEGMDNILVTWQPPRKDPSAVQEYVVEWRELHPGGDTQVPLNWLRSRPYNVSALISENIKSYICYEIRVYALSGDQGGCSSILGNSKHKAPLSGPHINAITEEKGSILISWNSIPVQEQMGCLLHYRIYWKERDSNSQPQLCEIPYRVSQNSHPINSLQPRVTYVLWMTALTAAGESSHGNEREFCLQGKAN
- Experiment: BLI, P.E., off-rate ranking
Kindly state koff for each of the entries shown.
Value expressed in s⁻¹; do not type the unit.

Reported koff for anti-IL-12Rβ2 VHH clone 3CRHS106 (clone ID 20429) (VHH, not shown: small tags and cut ends, periplasmic extract) VHH: QVQLQESGGGLVQPGGSLRLSCKASGFTFSTYAMSWVRQAPGKGLEWVSAVNSGGLSTDYADSVEGRFTISRDDAKNMLFLQMNSLKPEDTARYYCAKYEDCSDYMCHRDRAGYWGQGTQVTVSS was 0.00355

Reported koff for anti-IL-12Rβ2 VHH clone 3CRH27 (clone ID 20379) (VHH, not shown: small tags and cut ends, periplasmic extract) VHH: QVQLQESGGGLVQAGGSLRLSCTASGSIVSIYNMDWYRQAPGNEREWVASITSSGDPYYDGSAKGRFTISRDNAKMTVYLQMNSLKPEDTAVYYCKVPTEKGNYWGQGTQVTVSS was 0.00264

Reported koff for anti-IL-12Rβ2 VHH clone 3CRH17 (clone ID 20376) (VHH, not shown: small tags and cut ends, periplasmic extract) VHH: QVQLQESGGGLVQAGGSLVLSCAASGSAALIFLMSWYRQAPGKQRELVAEVSRYGSTTYADSVEGRFTISRDNAKNIVDLQMNSLKPEDTAVYYCKADQYYGDSLRSSWGRGTQVTVSS was 0.00446

Reported koff for anti-IL-12Rβ2 VHH clone 3CRHS67 (clone ID 20424) (VHH, not shown: small tags and cut ends, periplasmic extract) VHH: QVQLQESGGGLVQAGGSLTLSCVSSQTLVGIEAMGWYRQAPGKQRELVALITLNGGTFYADSVKGRFTISRDVAEHMLYLEMNSLNPEDTAVYFCVAGVESDNEEPTYWGQGTQVTVSS was 0.00443

Reported koff for anti-IL-12Rβ2 VHH clone 3CAHS170 (clone ID 20406) (VHH, not shown: small tags and cut ends, periplasmic extract) VHH: QVQLQESGGGLVQAGGSLRLSCVASGRTFSSYAMGWFRQGPGKEREFVAAISWSGVSIYYADSVKGRFTISRDNAKNTVYLQMNSLEPEDTAVYYCAGTEGAYTVAGGSTFGYDMDYWGKGTQVTVSS was 0.00379

Reported koff for anti-IL-12Rβ2 VHH clone 3CRHS156 (clone ID 20437) (VHH, not shown: small tags and cut ends, periplasmic extract) VHH: QVQLQESGGGLVQSGGSLRLSCVSSQTLVGIEAMGWYRQAPGKQRELVALITLNGGTFYADSVKGRFAISRDVAEHMLYLEMNSLNPEDTAVYFCVAGVESDNEEPTYWGQGTQVTVSS was 0.00297

Reported koff for anti-IL-12Rβ2 VHH clone 3CAHM11 (clone ID 21050) (VHH, not shown: small tags and cut ends, periplasmic extract) VHH: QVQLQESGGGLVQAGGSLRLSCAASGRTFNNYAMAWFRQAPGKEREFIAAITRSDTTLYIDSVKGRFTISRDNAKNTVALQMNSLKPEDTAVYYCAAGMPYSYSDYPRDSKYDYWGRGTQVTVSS was 0.00519

Reported koff for anti-IL-12Rβ2 VHH clone 3CRH67 (clone ID 20387) (VHH, not shown: small tags and cut ends, periplasmic extract) VHH: QVQLQESGGGLVQAGGSLVLSCAASGSAALIFLMSWYRQAPGKQRELVAEVSRYGSTTYADSVEGRFTISRDNAKNIVDLQMNSLKPEDTAAYYCKADQYYGDSLRSSWGRGTQVTVSS was 0.00495

Reported koff for anti-IL-12Rβ2 VHH clone 3CAH48 (clone ID 20360) (VHH, not shown: small tags and cut ends, periplasmic extract) VHH: QVQLQESGGGLVQAGGSLRLSCAASGRTFSSYAMGWFRQGPGKEREFVAAISWSGVSTYYADSVKGRFTISRDNAKNTVYLQMNSLRPEDTAVYYCAATEGAYTVAGGSTFGYDMDYWGKGTQVTVSS was 0.00443

Reported koff for anti-IL-12Rβ2 VHH clone 3CAHS124 (clone ID 20400) (VHH, not shown: small tags and cut ends, periplasmic extract) VHH: QVQLQESGGGLVQPGGSLRLSCAASGRTINAYIMGWFRQAPGKEREFVAAVSGSGGSTYYADSVKGRFTISRDNAKNTVNLQMDNLRSEDTDVYYCAATYESVYLQNPGQYDYWGQGTQVTVSS was 0.00324

Reported koff for anti-IL-12Rβ2 VHH clone 3CRHS100 (clone ID 20428) (VHH, not shown: small tags and cut ends, periplasmic extract) VHH: QVQLQESGGGLVQPGGSLRLSCTASGSIFSIYNMDWYRQAPGNQREWVASITPSGDPYYDDSAKGRFTISRDNAKMTVYLQMNSLKPEDTAVYYCKVPTEKGNYWGQGTQVTVSS was 0.00322

Reported koff for anti-IL-12Rβ2 VHH clone 2CRH10 (clone ID 20362) (VHH, not shown: small tags and cut ends, periplasmic extract) VHH: QVQLQESGGGLVQAGGSLVLSCAASGSAALIFLMSWYRQAPGKQRELVAEVSRGGSTTYADSVEGRFHISRDNAKNIVDLQMNSLKPEDTAVYYCKADQNYGDSLRSSWGRGTQVTVSS was 0.00524

Reported koff for anti-IL-12Rβ2 VHH clone 3CRH5 (clone ID 20373) (VHH, not shown: small tags and cut ends, periplasmic extract) VHH: QVQLQESGGGLVQAGGSLVLSCAASGSAALIFLMSWYRQAPGKQRELVAEVSRGGSTTYADSVEGRFTISRDNAKNIVDLQMNSLKPEDTAVYYCKADQNYGDSLRSSWGQGTQVTVSS was 0.00337

Reference source for all entries: patent US20260209362A1
